System: K-562 leukemia
Assay: NCI tumour cell line growth inhibition, 48 h; in the data active means GI50 below about 0.43 µM; inactive means the rest
Outcome codes: active, inactive

# compound, classification
measured = [
    ("O=C(Nc1ccc([N+](=O)[O-])cc1)c1cc2ccccc2cc1O", "active"),
    ("COc1cc2c(cc1-c1c(C)noc1C)ncc1[nH]c(=O)n([C@H](C)c3ccccn3)c12", "inactive"),
    ("COc1ccc(-c2cc3nccn3c(Nc3ncccc3C(N)=O)n2)cc1OC", "inactive"),
    ("CN(C)S(=O)(=O)c1cccc(-c2nc3sc4c(c3c(=O)[nH]2)CCCC4)c1", "inactive"),
    ("Cc1cc(Cl)ccc1Nc1nc(C(F)(F)F)ccc1C(=O)N/N=C/c1ccc(N(C)C)cc1", "inactive"),
    ("NCCCn1c2c(c3ccc([N+](=O)[O-])cc3c1=O)C(=O)c1cc(Cl)ccc1-2", "active"),
    ("C#CCOc1cccc(Nc2ncnc3c2ncn3C2CCN(C(=O)CCl)C2)c1 (centres undefined)", "inactive"),
    ("ClC1=C(Cl)C(Cl)=C(Cl)C1=Cc1ccc(Cl)cc1Cl", "active"),
    ("COc1ccc(Cn2cc3c(c2-c2ccccc2)CCc2cncnc2-3)cc1", "inactive"),
]
